# STUDY_TARGET: RORd1 (Oryzias latipes, UniProt H2LFF5)
# Construct: gene rorca
# Sequence (H2LFF5 98-473): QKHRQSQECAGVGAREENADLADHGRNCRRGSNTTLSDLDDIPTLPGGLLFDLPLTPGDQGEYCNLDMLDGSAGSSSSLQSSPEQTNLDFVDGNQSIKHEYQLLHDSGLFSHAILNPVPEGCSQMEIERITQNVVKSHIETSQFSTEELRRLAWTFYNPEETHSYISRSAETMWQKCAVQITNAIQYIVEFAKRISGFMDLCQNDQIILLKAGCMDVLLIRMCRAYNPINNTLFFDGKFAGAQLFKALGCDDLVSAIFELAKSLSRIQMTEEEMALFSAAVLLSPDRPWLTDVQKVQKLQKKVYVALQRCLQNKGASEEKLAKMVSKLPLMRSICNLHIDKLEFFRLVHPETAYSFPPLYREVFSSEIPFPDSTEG
# ASSAY_COMMENT: Gal4-RORd1 LBD luciferase reporter assay in stable HEK293 cells (weak agonist, […], EC50 not calculable)
# Type: cell-based
pEC50: −log10 of the molar value.
ASSAY_READOUT: pEC50

Response field pEC50 (RORd1 (Oryzias latipes, UniProt H2LFF5)) for item CC(/C=C/C12OC1(C)CCCC2(C)C)=C\C=C\C(C)=C\C(=O)O (stereo not drawn) [5,6E–ATRA, all-trans 5,6-epoxyretinoic acid] : < 5.00

src = paper PMC5553892
